Where do the numbers come from? From patent US20230263822A1.

tested on: blood coagulation; assay: PT and aPTT assay in cynomolgus monkeys (Example 46); format: in vivo; details: Day 17; platelet poor plasma; relative to PBS group
Strand notation (5' to 3'): a small letter for the sugar, then the base; units joined by * are phosphorothioate-linked, units joined directly phosphodiester-linked; [ ] holds rarer units or linkages, { } end groups; capitals alone tell only the bases. e = 2'-O-(2-methoxyethyl) (MOE); [5mC] = 5-methylcytosine; d = 2'-deoxy (DNA)

- substance: "ISIS 449708: 3-8-3, 4-8-4, 2-10-2, 3-10-3 or 4-10-4 MOE microwalk gapmer (Table 46) (antisense eA*e[5mC]*eA*dG*dT*dT*dT*d[5mC]*dT*dG*dG*e[5mC]*eA*eG)"
  PT ratio (INR): 1.00
- substance: "ISIS 416850: MOE gapmer, nucleobases 1275 to 1318 of SEQ ID NO: 1 (Table 8) (antisense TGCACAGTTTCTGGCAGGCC; MOE gapmer, wing and gap sizes not given here)"
  PT ratio (INR): 1.00
